assay: yeast display, Sf9 membrane polyspecificity reagent, FACS + sequencing; frameworks hold sequencing errors
metric: polyreactivity (PSR sort gate)

The following sequences have reported results that may help.
QVQRVESGGGLVQAGGSLRLSCAASGSTLVYNDMGWYRPAPGKEREFVAAIRSNDGSTYYADSVKGRFTISRDNAKNTVYLQMNSLKPEDTAVYYCNKDVWDGYDWPEFDYSGQGTQVTVSS
low polyreactivity
QVQLVESGGGLVQAGGSHRLSCAAYGRIFYYYVMGWYRQAPGKERELVAVIDWSGGSTYYADSVKGRFTISRDNAKYTVYVQMNCLKPDDTAVYYCAKVWLNFSLAYEDYDYWGQGTQVNVSS
low polyreactivity
QVQLVESGGGLVQAGGSLRLSCAASGSIFLYNAMGWYRQAPGKERELVAAISKSGGSTYYADSVKGRFTISRDNAKNTVYLQMNSLIPEDTAVYYCAAGYCRRIRYGSEYDYWGQGTQVTVSS
low polyreactivity
QVQLVESGGGLVQAGGSLRLSSAASGGIFFYNTMGWYRQAPGKERELVAAITTNGDSTYYADSVKGRFTISRDTAKYTVYLQMNSLKPEDTAVYYCAAGRRWARWLFPSRYDYWGQGTQVTVSS
low polyreactivity
QVQLVESGGCLVQAGGSLRLICAASGIILTQNAMGWYRQAPGKERELVAAITESGARTYYADSVKGRFTISRDNAKNTVYLQMNSLKPEDTAVYYCAAHTRTSGHNYWGQGTQVTVSS
low polyreactivity
QVQLVESGGGLVQAGGSLRLISAASVRTFAPYPRGWYREAPGKDRELVAAISSGGGNTYYADSVKGRFTISRDHPKNTVYLLMNSLKPEDTAGYYCNAAQRRGGLGYWGQGTQVTVSS
high polyreactivity

# batch: return polyreactivity (PSR sort gate) for each of the 5 sequences below
1. QVQHVESGGGLVQAGGSLRLSCAASGIIFGGNAMGWYRQAPGKERELVAGISGSGASTYYADSVKGRFTISRDNAKNTVYLQMNSLKPEDTAVYYCAADGYPGDDYWGQGTQVTVSS
2. QVQLVESGGGLVQAGGSLRLSCAASGRIFRSYAMGWYRQAPGKERELVAAITKSGGGTYYADTVKGRFTISRDNAKNTVYLQMNSMKPEDTAVYYCGARGHCGYYYWGQGTQVTVSS
3. QVQLVESGGGLVQAGGSLRLSCAASGFILYYYAKGWYRPAPGKERELVAAISWSGDSTYYADSVKGRFTISRDNAKNTVYLQMNSLKPEDTAVYYCAATWQLTHRYYWGQGTQVTVSS
4. QVQLVESGGGLVQAGGSLRLSCAASGFILRQNVMGWYRQAPGKERELVAAISRSGGRTYYADSVKGRFTISRDNAMNTVYFQMNSLKPEDTAVDYCNAGRYNYTDDYWGQGTQVTVSS
5. QFQLVESGGGLVQAGGSLRLSCAATGSIFRGNAMGWYRQAPGKERELVAGINRAGSTKYADSVKGRFTISRDNAKNTVYLQMNSLKPEDTAVYYCAAVRYERGLWSDYWGQGTQVTVSS

1. high polyreactivity
2. high polyreactivity
3. low polyreactivity
4. high polyreactivity
5. high polyreactivity

###

assay: yeast display, Sf9 membrane polyspecificity reagent, FACS + sequencing; frameworks hold sequencing errors
metric: polyreactivity (PSR sort gate)

The following sequences have reported results that may help.
QVQLVESGGGLVQAGGSLRLSCAASGSILVGYAMGRYRLAPGKERELVAAISFSGGSTYYADSVKGRFTISRDNAKNTVYLQMNRLKQEDTAVYYCAAKRRVWIFYSSSDDYWGQGSQVTVSS
low polyreactivity
QVQLVESGGGILQAGGSLRLSCAASGFTFLGYVMGWYRQSPGKEREIVADITESGGRTYYADSVKGRFTISRDNAKNTVFLQMNSLKPEDTAVYYCAAELSYWGYYYSFDYWGHGTQVTVSS
low polyreactivity
QVQLVESGGGLVQAGGRLRLSCAASRRIFDYNDRGWYRQAPGKERELVAAINDDSRTNYADSVKGRFTISRDNAKNTVYLQMNSLKPEDTAVYYCNNVYGRSGIGFDYWGQGTQVTVSS
low polyreactivity
QVQLVESGGGLVQEGGSLRLSCAASGFTLYGYTMGWYRQAPGKERELVAAISGSGGRTYYADSVKGRFTISRDNAKNTVYLQMNSLKPEVTEVYYCAADSRGTWYGYDYWGQGTQVTVSS
high polyreactivity
QFQLDESGGGLVQAGGSLRLSCAASGLTFSIYAMGWYRKARGKERELVAAITGRGGRTYYADSVKGRFTISRENAKNTVYLQMKSLKPEDTAFYYCADRYRGTDFDYWGQGTQVTVSS
high polyreactivity

# batch: return polyreactivity (PSR sort gate) for each of the 7 sequences below
1. QVQIVESGGGLVQAGGSLRLSCAASGRTFQYYTMGWSRQAPGKEREFVAAIRDSGGSTYYADSVKGRFTISRDNAKNTVYLQMNSLKPEDTAVYYCAAYRPRKYDYWGQGTQVTVSS
2. QVQLVESGGGLVQAGGSLRLSCAASGITFRTNTMGWYRQAPGKERELVAAITRSGVTTYYADSVKGRFTISRDNAKNTVYLQMNSLKPEDTAVYYCAAKSFYAHYDYWGQGTQVTVSS
3. QVQLVESGGGLVQAGGSLRLSCAASGGMGWYRQAPGKERELVATISSVGSTNYADSVKGRFTISRDNAKNTVYLQRNSLKPEVTAVYYCNATGVQYFLYGYWGQGTQVTVSS
4. QVELVESGGGLVQAGGSLRLSCAASGFTFRYYAMGWYRQAPGKERELVAAINASGGRTYYADSVKGRFTISRDNAKNTVYLQMNSLKPEDTAVYYCAARSIRQHYGMDYWGQGTQVTVSS
5. QVQLVESGGGLVQAGGSLRLSCAASGSIFWWYAMGWYRPAPGKERELVAAISGRGGNTYYADSVKGRFTISRDNAKNTVYLQMNSLKPEDTAVYYCNADDTKYPYYTDDYWGQGTQVTVSS
6. QVQLVESGGGLVQAGGSLRLSCAASGRIFYSNAMGWYRQAPGKERELVAASRWSGTRTSYADSVKGRFTISRDNAKNTVYLQMNSLKPEDTAVYYCAAAGWYHSYWGQGTQVTVSS
7. QLQLVESGGGLVQAGGSLRLSCAASGFTSDVYAKVSYRQAPGKERELVAEISARGGSTYYADSVKGRFTISRDNAKNTVYLQMNSLKPEDTAVYYCAAEVYVGTIGFYADFFYYPVYYWGQGTQVTVSS

1: high polyreactivity; 2: high polyreactivity; 3: low polyreactivity; 4: high polyreactivity; 5: low polyreactivity; 6: high polyreactivity; 7: low polyreactivity
